Target: rhFAP (Homo sapiens, UniProt Q12884)
Sequence (Q12884 1-760): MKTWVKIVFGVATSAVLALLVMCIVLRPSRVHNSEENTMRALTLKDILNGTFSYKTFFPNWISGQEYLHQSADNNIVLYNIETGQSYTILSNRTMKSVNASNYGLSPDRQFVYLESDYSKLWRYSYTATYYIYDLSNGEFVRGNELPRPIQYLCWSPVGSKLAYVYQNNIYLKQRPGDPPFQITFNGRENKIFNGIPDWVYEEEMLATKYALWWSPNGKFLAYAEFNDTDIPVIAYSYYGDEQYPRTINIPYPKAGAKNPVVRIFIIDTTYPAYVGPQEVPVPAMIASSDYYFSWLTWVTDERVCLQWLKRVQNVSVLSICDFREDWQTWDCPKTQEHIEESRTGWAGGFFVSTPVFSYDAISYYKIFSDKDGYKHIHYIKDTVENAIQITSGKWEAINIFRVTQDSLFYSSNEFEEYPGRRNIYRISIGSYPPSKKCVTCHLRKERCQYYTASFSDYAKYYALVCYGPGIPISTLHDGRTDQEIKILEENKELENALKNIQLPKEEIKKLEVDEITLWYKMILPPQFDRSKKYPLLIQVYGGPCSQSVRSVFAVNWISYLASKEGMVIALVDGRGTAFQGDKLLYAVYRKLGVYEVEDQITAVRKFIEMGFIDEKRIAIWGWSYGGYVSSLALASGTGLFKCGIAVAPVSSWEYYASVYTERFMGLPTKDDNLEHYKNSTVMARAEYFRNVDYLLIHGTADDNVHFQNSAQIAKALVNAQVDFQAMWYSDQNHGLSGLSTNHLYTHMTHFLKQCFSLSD
Experiment: Probe cleavage by recombinant human FAP (fluorescence read)
Assay type: biochemical
Details: comparison between probe iterations
quantityKind: signal (relative fluorescence intensity) with rhFAP

Lys(MethylRed)-(β)Ala-Pro-Ser-Lys(5-FAM)-[Peg2-(D)Lys]3-NH2 [FAP2Fβ-Ala] : reduced signal
Lys(MethylRed)-(D)Thr-Pro-Ser-Lys(5-FAM)-[Peg2-(D)Lys]3-NH2 [FAP2DD-Thr] : reduced signal
Lys(MethylRed)-(D)Ala-Pro-Ser-Lys(5-FAM)-[Peg2-(D)Lys]3-NH2 [FAP2BD-Ala] : reduced signal
